# Experimental System: ScLsb1
# Measurement Notes: SPOT peptide array binding signal intensity (averaged, normalized) (arbitrary units (background-subtracted, floor 0; scale differs between SH3 domains)); higher = stronger binding of the SH3 domain to the peptide
Where SPOT peptide array binding signal intensity equals or exceeds 20, the correct label is MET; where it does not, the label is NOT MET.

Q) Please check the record SPLGAPPPPPHKDHL and state if its SPOT peptide array binding signal intensity is at or above 20.
A) NOT MET

Q) Please check the record EREKALPPIPFTTTL and state if its SPOT peptide array binding signal intensity is at or above 20.
A) NOT MET

Q) Please check the record FYHRPAPKPPVTKKV and state if its SPOT peptide array binding signal intensity is at or above 20.
A) MET

Q) Please check the record HVRRSILALPLGVLL and state if its SPOT peptide array binding signal intensity is at or above 20.
A) NOT MET

Q) Please check the record HKVLRPFLLRRLKKD and state if its SPOT peptide array binding signal intensity is at or above 20.
A) NOT MET

Q) Please check the record PHNPSPFFPPPDFND and state if its SPOT peptide array binding signal intensity is at or above 20.
A) NOT MET

Q) Please check the record DAPASKPSVPPRNYF and state if its SPOT peptide array binding signal intensity is at or above 20.
A) MET

Q) Please check the record TPTSGPPLLPPRNTM and state if its SPOT peptide array binding signal intensity is at or above 20.
A) MET

Q) Please check the record RSRRSSFAYPQQVAI and state if its SPOT peptide array binding signal intensity is at or above 20.
A) NOT MET

Q) Please check the record QPWTDQFEKLEKEVS and state if its SPOT peptide array binding signal intensity is at or above 20.
A) NOT MET

Q) Please check the record ILARAILTIPRVLDK and state if its SPOT peptide array binding signal intensity is at or above 20.
A) NOT MET

Q) Please check the record ISPPASPPPEFDFSK and state if its SPOT peptide array binding signal intensity is at or above 20.
A) NOT MET

Q) Please check the record ALRRRLPVTRSKINW and state if its SPOT peptide array binding signal intensity is at or above 20.
A) MET

Q) Please check the record NRLRKRLNLPSEISI and state if its SPOT peptide array binding signal intensity is at or above 20.
A) MET

Q) Please check the record LLIRWLILMPLVGSR and state if its SPOT peptide array binding signal intensity is at or above 20.
A) NOT MET
